System: IGROV1 ovarian
experimental protocol: NCI-60 one-dose screen, 48 h
recorded conditions: 10 µM unless noted
Protocol: Growth inhibition of the IGROV1 human tumor cell line is measured as a screen for anti-cancer activity. Cells are grown in 96 well plates and exposed to the test compound for 48 hours. Compounds are tested at a single concentration, which is 10^-5 M for most compounds. The reported endpoint is percent growth (GI% or GIPRCNT), where numbers from 0 - 100% represent growth inhibition, and numbers from -100% - 0 represent cell death. For example, a value of 40 represents 60% growth inhibition. […]
The panel holds about 83,000 compounds, 20% with a hit somewhere; the sample as a whole holds those more often. Activity calls are given as the source filed them. Rule for the calls: active = growth percent below 10; inactive = the rest.
# output must be one of active, inactive

In [3]: df
Out[3]:
                                   molecule  class_name
0  [2H]C1([2H])[C@H](C)O[C@H](C)C([2H])([2H])N1c1ccc(NC(=O)c2cccc(-c3ccc(OC(F)(F)F)cc3)c2C)cn1    inactive
1  CC(C)[C@@H]1CC[C@@H]2[C@@H]1[C@H](OC(=O)/C=C/c1ccccc1)[C@]1(C(C)C)C[C@@H](OC(=O)CO)[C@@]2(C)O1    inactive

Turning now to a further record.
Record lookup: outcome of this test for COc1cc2c(cc1OCCCCN1CCN(CC(=O)Nc3ccc(Cl)cc3C(=O)c3ccccc3Cl)CC1)N=CC1CCCN1C2=O (stereo not drawn) ? active

# credit: PubChem BioAssay (NCI)
